The values you see were collected from patent US20250163162A1.

Target: T1, IL10Rα/IL2Rγ receptor (human) (UniProt Q13651)
T1 sequence (looked up) 1: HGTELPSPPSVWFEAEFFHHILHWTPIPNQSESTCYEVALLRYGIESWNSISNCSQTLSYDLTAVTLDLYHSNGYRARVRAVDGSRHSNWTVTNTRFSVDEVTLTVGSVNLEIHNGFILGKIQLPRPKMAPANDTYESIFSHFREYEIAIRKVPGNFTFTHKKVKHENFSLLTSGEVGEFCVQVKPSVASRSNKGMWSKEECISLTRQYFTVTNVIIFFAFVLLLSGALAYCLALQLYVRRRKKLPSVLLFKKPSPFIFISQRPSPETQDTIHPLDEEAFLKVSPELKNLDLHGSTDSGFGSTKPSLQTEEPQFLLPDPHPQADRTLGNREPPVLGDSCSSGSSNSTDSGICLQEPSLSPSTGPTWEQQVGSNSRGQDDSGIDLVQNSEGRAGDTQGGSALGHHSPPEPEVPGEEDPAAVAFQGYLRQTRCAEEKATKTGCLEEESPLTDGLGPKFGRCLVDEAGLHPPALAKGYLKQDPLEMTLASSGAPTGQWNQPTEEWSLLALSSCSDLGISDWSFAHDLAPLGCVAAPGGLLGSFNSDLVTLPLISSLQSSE
T1 sequence (looked up) 2: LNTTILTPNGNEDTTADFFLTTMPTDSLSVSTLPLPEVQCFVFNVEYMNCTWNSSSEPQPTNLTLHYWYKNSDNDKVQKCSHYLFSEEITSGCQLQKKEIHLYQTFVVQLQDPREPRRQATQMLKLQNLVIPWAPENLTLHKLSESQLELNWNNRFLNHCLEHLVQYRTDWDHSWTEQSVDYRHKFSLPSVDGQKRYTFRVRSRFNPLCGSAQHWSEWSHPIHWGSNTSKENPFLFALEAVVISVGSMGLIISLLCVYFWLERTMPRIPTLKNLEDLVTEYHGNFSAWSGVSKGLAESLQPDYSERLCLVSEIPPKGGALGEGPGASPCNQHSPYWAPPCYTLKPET
Test: cell-based or functional assay
property_label: IL-1β secretion, LPS treated monocytes, at 0.001 µM (pg/mL)
Return type: number; implicit unit pg/mL.

Ask: Return reported IL-1β secretion, LPS treated monocytes, at 0.001 µM; argument: hIL10Ra_VHH14 - hIL2Rg_VHH19, linker GGSGGS, tag his (bispecific antibody, not shown: small tags and cut ends) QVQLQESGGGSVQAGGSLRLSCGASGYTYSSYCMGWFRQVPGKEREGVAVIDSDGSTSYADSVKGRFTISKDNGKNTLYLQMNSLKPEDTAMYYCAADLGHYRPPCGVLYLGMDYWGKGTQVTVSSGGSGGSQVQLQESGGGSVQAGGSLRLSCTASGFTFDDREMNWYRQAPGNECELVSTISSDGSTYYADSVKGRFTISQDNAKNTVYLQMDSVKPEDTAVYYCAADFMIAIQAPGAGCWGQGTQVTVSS
Reply: 5850

Ask: Next binder: hIL10Ra_VHH14 - hIL2Rg_VHH19, linker GS, tag his (bispecific antibody, not shown: small tags and cut ends) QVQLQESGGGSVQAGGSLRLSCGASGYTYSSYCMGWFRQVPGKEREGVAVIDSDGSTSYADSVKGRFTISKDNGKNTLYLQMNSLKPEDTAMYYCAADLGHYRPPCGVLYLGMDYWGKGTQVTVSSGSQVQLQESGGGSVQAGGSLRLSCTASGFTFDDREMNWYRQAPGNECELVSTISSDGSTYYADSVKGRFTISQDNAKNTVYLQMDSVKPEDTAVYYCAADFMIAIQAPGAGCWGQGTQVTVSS
Reply: 6270
